These data points were gathered from paper PMC4865847.

Provide the recorded MIC for the entries that follow.
tested on: Staphylococcus epidermidis; assay: Antibacterial susceptibility testing (MIC/MBC), S. epidermidis; assay type: cell-based; settings: Staphylococcus epidermidis, strain RP62A (biofilm producer); read-out: MIC S. epidermidis RP62A
One number for each entry, in µg/mL.

Previously resolved entries follow.
Oc1cccc2[nH]c3ccccc3c12 [F2.8]; 250
Nc1nccc(Nc2ccc(Br)cc2)n1 [F1.8]; 500
CC[C@H](c1ccc(O)cc1)[C@@H](CC)c1ccc(F)cc1 [S1.13]; 8

Moving on to the next compound.
**Query** Provide MIC, recorded with Staphylococcus epidermidis, of NCCc1ccc2c(c1)[nH]c1ccccc12 [F2.3]
**Result** 125

* * *

Provide the recorded inhibition at 2000 µM for the entries that follow.
target: E. coli PhoR (PhoR^E) (Escherichia coli); construct: The catalytic portion (DHp and CA domain) of E. coli PhoR (PhoR^E); made in house; host or cells: E. coli RIL; experiment: In vitro autophosphorylation kinase assay with γ-32P-ATP, PhoR^E; assay type: biochemical; settings: 2 mM, 30 sec, compared to negative control
Sequence (P08400 210-425): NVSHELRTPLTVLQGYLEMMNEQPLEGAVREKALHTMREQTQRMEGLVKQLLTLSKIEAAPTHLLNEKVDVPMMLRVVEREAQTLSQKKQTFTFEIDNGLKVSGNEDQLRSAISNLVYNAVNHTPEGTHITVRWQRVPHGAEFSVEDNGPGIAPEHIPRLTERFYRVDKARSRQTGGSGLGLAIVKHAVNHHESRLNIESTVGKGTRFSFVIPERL

CC(=O)Nc1ccc(-c2ccc(F)cc2)cc1; > 75%
CC(C)(C)c1ccc(NS(=O)(=O)c2ccc(N)cc2)cc1; > 40%
Nc1nccc(Nc2ccc(Br)cc2)n1; > 50%

I'm hoping you can list inhibition at 2000 µM for every molecule here, please.
1. CC[C@H](c1ccc(O)cc1)[C@@H](CC)c1ccc(F)cc1
2. CC(C)(C)c1ccc(O)c(CNc2ccccc2)c1
3. CCc1ccc2[nH]c3ccccc3c2c1
4. Oc1cccc2[nH]c3ccccc3c12

**Result**
["> 75%", "> 40%", "> 50%", "> 50%"]

* * *

molecular target: S. aureus PhoR (PhoR^S) (Staphylococcus aureus); assay: In vitro autophosphorylation kinase assay with γ-32P-ATP, PhoR^S; assay type: biochemical; conditions: IC50 PhoR^S, autophosphorylation, one time point (30 sec), 10% DMSO
Sequence (Q2FXN7 entry or part of it): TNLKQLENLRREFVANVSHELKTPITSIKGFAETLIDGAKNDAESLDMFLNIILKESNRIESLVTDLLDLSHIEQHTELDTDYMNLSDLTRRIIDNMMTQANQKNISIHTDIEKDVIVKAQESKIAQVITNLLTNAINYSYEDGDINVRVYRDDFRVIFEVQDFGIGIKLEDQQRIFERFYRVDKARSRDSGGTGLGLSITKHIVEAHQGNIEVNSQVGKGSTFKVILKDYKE
pIC50: −log10 of the molar value.
Provide the recorded pIC50 for the entries that follow.

Previously resolved entries follow.
CC(=O)Nc1cccc(OCc2cccc([N+](=O)[O-])c2)c1; < 2.70
CCn1c2ccccc2c2cc(NC(C)=O)ccc21; < 2.70
CC(NCc1cccc2ccccc12)c1cccc(F)c1 (stereo not drawn); < 2.30
CC(=O)c1cccc(NC(=O)N(C)Cc2ccccc2)c1; < 2.70
CCC(Nc1cccc(NC(C)=O)c1)c1ccc(F)cc1 (stereo not drawn); ~3.00

I'm hoping you can list pIC50 for every compound here, please.
1. CC(=O)Nc1cccc(Cc2cccc(NC(C)=O)c2)c1
2. CCN(Cc1ccc(C(=O)OC)cc1)c1cccc(NC(C)=O)c1
3. CC(=O)Nc1cccc(S(=O)(=O)c2cccc(NC(C)=O)c2)c1

**Result**
["< 2.70", "< 2.70", "< 2.70"]

I'm hoping you can list pIC50 for every compound here, please.
1. CC(=O)Nc1cccc(C(C)NCc2cccc(Br)c2)c1 (stereo not drawn)
2. CCC(c1cccc(Br)c1)C(C(C)=O)c1ccc(OC)cc1 (stereo not drawn)
3. CNC(=O)NC(=O)CSc1nc2sc3c(c2c(=O)n1-c1ccccc1F)CCCC3
4. CC(=O)Nc1ccc(NC(=O)c2cccc(F)c2)cc1
5. CC(=O)Nc1ccc2c(c1)Cc1cc(Br)ccc1-2
6. CC(=O)Nc1ccc[n+](CC(=O)c2ccc(F)cc2)c1
7. CC(=O)Nc1cccc(OCc2ccc([N+](=O)[O-])cc2)c1

**Result**
1: 2.94; 2: < 2.70; 3: < 2.30; 4: < 2.70; 5: < 2.70; 6: < 2.70; 7: < 2.70
